% inhibition of migration, recombinant cCCL21, H9 cells, 1:1 molar ratio (3rd cell) values by entry
# assaySystem: T1, cynomolgus monkey CCL21 (cynomolgus monkey, UniProt Q8HYP5 24-131 (rhesus entry))
# T1 sequence: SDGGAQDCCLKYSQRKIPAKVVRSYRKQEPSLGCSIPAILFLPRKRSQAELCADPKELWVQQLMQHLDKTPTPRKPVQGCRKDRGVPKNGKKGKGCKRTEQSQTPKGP
# experimentNotes: cell-based or functional assay
The figure you give is taken to be in %; do not add the unit.

binder | measValue
MOR08378_g5-51_g2a2 (antibody, human IgG1, lambda, V domains shown) VH: EVQLVQSGAEVKKPGESLKISCKGSGYSFNNYWISWVRQMPGKGLEWMGIIDPTNSQTTYSPSFQGQVTISADKSISTAYLQWSSLKASDTAMYYCARDGYPIFDYWGQGTLVTVSS VL: QSALTQPASVSGSPGQSITISCTGTSSDLGGYNYVSWYQQHPGKAPKLMIYDVNYRPSGVSNRFSGSKSGNTASLTISGLQAEDEADYYCSSYTYYSNSGVFGGGTKLTVLG | 100

INPUT: Given the binder MOR08382_g3-23_gL6 (antibody, human IgG1, kappa, V domains shown) VH: EVQLLESGGGLVQPGGSLRLSCAASGFTFSSYWLNWVRQAPGKGLEWVSYISNQGDDTSYADSVKGRFTISRDNSKNTLYLQMNSLRAEDTAVYYCARDYQYIGDSFDIWGQGTLVTVSS VL: EIVLTQSPATLSLSPGERATLSCRASQYVSYVSLAWYQQKPGQAPRLLIYDASNRATGIPARFSGSGSGTDFTLTISSLEPEDFAVYYCQQYDDLSYTFGQGTKVEIKR , what is its reported % inhibition of migration, recombinant cCCL21, H9 cells, 1:1 molar ratio (3rd cell)?
OUTPUT: 100

INPUT: Now this one: MOR06935_g3-23_g3j (antibody, V domains shown, also called QBP359; FW repaired germlined MOR06935) VH: EVQLLESGGGLVQPGGSLRLSCAASGFTFNSYSMSWVRQAPGKGLEWVSAISMEGYSKSYADSVKGRFTISRDNSKNTLYLQMNSLRAEDTAVYYCARGYGYYFDVWGQGTLVTVSS VL: SYELTQPLSVSVALGQTARITCGGDSIGSQYASWYQQKPGQAPVLVIYDDNERPSGIPERFSGSNSGNTATLTISRAQAGDEADYYCGSWDSNPTHVFGGGTKLTVLG
OUTPUT: 96
